- Assay Notes: viability loss in pontine glioma line – cell-based, JHH-DIPG-1, MIPE4.0, CellTiter-Glo, qHTS, dose response (AID 1347062);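 on AC50: cells exposed to compound for two days before readout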
- Condition Notes: JHH-DIPG-1 viability, CellTiter-Glo ATP luminescence
Inconclusive results are not listed. Calls of active or inactive are those of the source. Cut-off not given; nearly all actives show AC50 up to about 27 µM.
Use one of these outcomes when replying: Yes = active, No = inactive

C[C@@H]1COC(Nc2ccc3ncnc(Nc4ccc(OCc5nccs5)c(Cl)c4)c3c2)=N1    Yes
COc1cccc(OC)c1-c1cc(C(=O)NC2(C(=O)O)C3CC4CC(C3)CC2C4)nn1-c1ccnc2cc(Cl)ccc12 (configuration not stated)    No
COc1cc(C)c(Sc2cnc(NC(=O)c3ccc(CNC(C)C(C)(C)C)cc3)s2)cc1C(=O)N1CCN(C(C)=O)CC1 (configuration not stated)    Yes
C=CC(=O)N1CCC[C@@H](n2nc(-c3ccc(Oc4ccccc4)cc3)c3c(N)ncnc32)C1    Yes
COc1cc2c(Nc3ccc(Cl)c(Cl)c3F)ncnc2cc1OCC1C[C@@H]2CN(C)C[C@@H]2C1 (some centres not stated)    Yes

query: Which result was noted for this compound in the test: CO[C@H]1C[C@@H]2CC[C@@H](C)[C@@](O)(O2)C(=O)C(=O)N2CCCC[C@H]2C(=O)O[C@H]([C@@H](C)C[C@@H]2CC[C@@H](O)[C@H](OC)C2)CC(=O)[C@H](C)/C=C(\C)[C@@H](O)[C@@H](OC)C(=O)[C@H](C)C[C@H](C)/C=C/C=C/C=C/1C
result: Yes

query: Follow-up item: CC/C(=C(/c1ccc(O)cc1)c1ccc(OCCNC)cc1)c1ccccc1
result: Yes

###

Listing of entries alongside the reported cell count.
- Assay Notes: viability loss with induced miR-34 in A549 – imaging, A549 dox-inducible miR-34, nuclei and caspase counts, primary screen (AID 1347080)
- Condition Notes: A549 miR-34 inducible, Hoechst nuclei count, 48 h; measured here: total cells with miR-34 induction; stronger effect = lower value
A bare number is all that is needed in reply.

query: May I ask what cell count has been recorded for O=C(c1cc(Cc2n[nH]c(=O)c3ccccc23)ccc1F)N1CCN(C(=O)C2CC2)CC1 ?
result: 4680

query: Thanks! And CCCCCC(=O)OC[C@H](CO)OC(=O)CCCCC ?
result: 5390

###

- Assay Notes: viability loss with induced miR-34 in A549 – imaging, A549 dox-inducible miR-34, nuclei and caspase counts, primary screen (AID 1347080)
- Condition Notes: A549 miR-34 inducible, Hoechst nuclei count, 48 h; measured here: relative caspase fold change +Dox/-Dox
Measurement Label: fold change

CCCCCCCCCCCCCCCC(=O)OC[C@@H](O)COP(=O)(O)O    0.427
CCN(CC)CCn1c(=O)c(Cc2ccc(OC)cc2)nc2ccccc21    1.5
CCCCC[C@H](O)/C=C/[C@@H]1[C@@H](CCCCCCCO)[C@@H](O)C[C@H]1O    1.15

Switching to the query record.
query: Please report the recorded fold change for CN(CCc1ccc(Cl)c(Cl)c1)CCN1CCCC1 .
result: 0.63

###

- Assay Notes: growth inhibition, single agents and combos, HTB85, cell-based, BGB or cisplatin IC20 combos, synergistic combos for chromothripsis tumors (AID 1671453);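 further: cells exposed for 96 hours before readout; 0% = vehicle DMSO and 100% = high DMSO killing control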
- Condition Notes: HTB85 osteosarcoma cells, drug combinations, measured here: with BGB IC20, at 0.5 µM, stronger effect = higher value
Measurement Label: inhibition (%)
The reply should be a number in %, with the unit left off.

query: Name the reported inhibition value associated with the compound O=c1cc(N2CCOCC2)oc2c1ccc1ccccc12
result: 5.35

query: Next: Nc1nc(OCc2cc(Br)cs2)c2[nH]cnc2n1
result: -10.7

query: Queued: CC(=O)Nc1nc(C)c(-c2ccc(Cl)c(S(=O)(=O)NCCO)c2)s1
result: 11.8

query: Field entry: C[C@]12CCCN1CC1=NNC(=O)c3cc(F)cc4[nH]c2c1c34
result: -13.5

query: Entry to check: N=C1CCCN1Cc1[nH]c(=O)[nH]c(=O)c1Cl
result: 11.6

query: # repeat for C=C1[C@H](CO)[C@@H](O)C[C@@H]1n1cnc2c(=O)[nH]c(N)nc21
result: -14.3

###

Catalogue of molecules with associated fold change
- Assay Notes: viability loss with induced miR-34 in A549 – imaging, A549 dox-inducible miR-34, nuclei and caspase counts, primary screen (AID 1347080)
- Condition Notes: A549 miR-34 inducible, Hoechst nuclei count, 48 h; measured here: relative caspase fold change +Dox/-Dox
Form rule: numeric answer, no unit written next to it.

query: What value of fold change has been recorded for this entry: CC(C)(C)c1cnc(CSc2cnc(NC(=O)C3CCNCC3)s2)o1
result: 1.56

query: // next record c1ncc(CC2CCNCC2)[nH]1
result: 0.717

query: Another molecule to look at: N[C@@H](C(=O)O)[C@@H](OCc1ccccc1)C(=O)O (racemic)
result: 1.02

query: Now try CCCc1cc(C(=O)c2ccc(-c3ccccc3)cc2)ccc1OCCCN1CCCc2c(OC(C)(C)C(=O)O)cccc21 .
result: 1.42

query: Again, but for O=C(c1cccs1)c1ccc(OCCCO)c(Cl)c1Cl
result: 0.529

query: Same read-out for CC(=O)N(OCc1ccccc1)[C@@H]1c2cc(C#N)ccc2OC(C)(C)[C@H]1O ?
result: 0.973

query: Consider next the molecule CS(=O)(=O)N1CCN(Cc2cc3nc(-c4cccc5[nH]ncc45)nc(N4CCOCC4)c3s2)CC1 in the same way.
result: 0.859

query: Repeat for the following molecule: CN(C)C(=O)[C@H](O)[C@H](Cc1ccccc1)NC(=O)c1cc2cc(Cl)ccc2[nH]1
result: 1.42

query: Same question, CCS(=O)(=O)N1CCC[C@@H]2CN3CCc4cc(OC)ccc4[C@@H]3C[C@@H]21 this time
result: 0.859

query: Would you kindly repeat that for C=CC[C@@H]1/C=C(\C)C[C@@H](C)C[C@H](OC)[C@H]2O[C@@](O)(C(=O)C(=O)N3CCCC[C@H]3C(=O)O[C@H](/C(C)=C/[C@@H]3CC[C@@H](O)[C@H](OC)C3)[C@H](C)[C@@H](O)CC1=O)[C@H](C)C[C@@H]2OC ?
result: 0.315

query: Then what about the molecule CC(C)c1cc2c(c(O)c1O)C13CCCC(C)(C)C1CC2OC3=O (centres undefined) ?
result: 1.02

###

- Assay Notes: viability loss with induced miR-34 in A549 – imaging, A549 dox-inducible miR-34, nuclei and caspase counts, primary screen (AID 1347080)
- Condition Notes: A549 miR-34 inducible, Hoechst nuclei count, 48 h; measured here: total cells without miR-34 induction
Measurement Label: cell count
Lab note: jot down the number only; don't add units.

CCCCCCC(=O)SC[C@H](COP(=O)([O-])OCC[N+](C)(C)C)SC(=O)CCCCCC    6070
C[C@]12CC[C@@H]3c4cc(O)c(O)cc4CC[C@H]3[C@@H]1CC[C@@H]2O    5920
C=C1C[C@@H](O)[C@H](/C=C/[C@@H](O)CCCCC)[C@H]1C/C=C\CCCC(=O)O    6250
CCCCOc1ccc(C(=O)Nc2ccc(F)cc2F)cc1    10200

API: the following record is the query input.
query: GET /values?readout=cell count&item= CCC(C)(C)C(=O)C(=O)N1CCCC[C@H]1C(=O)O[C@H](CCc1ccc(OC)c(OC)c1)c1cccc(N)c1
result: 6080

###

- Assay Notes: growth inhibition, single agent and combos, cell-based, chromothripsis tumors, cisplatin or BGB combos (AID 1671450);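 further: cells exposed to compound for four days; 0% = vehicle DMSO and 100% = cell killing by high DMSO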
- Condition Notes: HDN33 neuroblastoma cells, BGB combo, at 5 µM, stronger effect = higher value
Measurement Label: inhibition (%)
Response body: numeric value in %, unit text excluded.

C[C@]12CCCN1CC1=NNC(=O)c3cc(F)cc4[nH]c2c1c34    6.78
CC(=O)Nc1nc(C)c(-c2ccc(Cl)c(S(=O)(=O)NCCO)c2)s1    18.5
COc1ccc(-n2c(SCCCN3C(=O)c4cccc5cccc(c45)C3=O)nnc2-c2ccncc2)cc1    -3.81
COc1ccc(C(=O)C2CCN(CC(=O)N(Cc3nc4c(c(=O)[nH]3)COCC4)CC3CC3)CC2)cc1    -14.7
Nc1nc(OCc2cc(Br)cs2)c2[nH]cnc2n1    -14.7

// below: inhibition requested for another molecule
query: Which inhibition value is on record for COc1cc2ncnc(-n3nc(-c4ccccn4)nc3N)c2cc1OC ?
result: -0.513

###

Overview of recorded inhibition for various compounds
- Assay Notes: CRL1545 cell growth, single agent and combined, cisplatin and BGB IC20 combos (AID 1671464);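 further: cells exposed to compound for 96 hours before readout; 0% = vehicle DMSO and 100% = high DMSO killing control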
- Condition Notes: CRL1545 osteosarcoma cells, single agent, at 5 µM, stronger effect = higher value
Provide the reading as a plain figure in %.

query: Dear colleague, I am looking for the recorded inhibition of the following compound: CN(C)CCN1C(=O)c2cccc3cc(N)cc(c23)C1=O
result: 59.5

query: Now the same for CO[C@H]1/C=C/O[C@@]2(C)Oc3c(C)c(O)c4c(O)c(c(/C=N\N5CCN(C6CCCC6)CC5)c(O)c4c3C2=O)NC(=O)/C(C)=C\C=C\[C@H](C)[C@H](O)[C@@H](C)[C@@H](O)[C@@H](C)[C@H](OC(C)=O)[C@@H]1C
result: 73.2

query: Continue with CC(=O)Nc1nc(C)c(-c2ccc(Cl)c(S(=O)(=O)NCCO)c2)s1
result: 1.73

query: Try CN(C)C/C=C/C(=O)Nc1ccc(C(=O)Nc2cccc(Nc3ncc(Cl)c(-c4c[nH]c5ccccc45)n3)c2)cc1 next.
result: 99.8
